target: BaF3 BRAF-KIAA1549 fusion cells (Homo sapiens); construct: The BRAF-KIAA1549 fusion mutant was subcloned into pMXs-IRES-Blasticidin (RTV-016, Cell Biolabs, San Diego, CA); fused on or other part: Q9HCM3 (UPF0606 protein KIAA1549); experiment: BaF3 BRAF-KIAA1549 fusion cell proliferation assay (CellTiterGlo); type: cell-based; conditions: 96 hours incubation, potency code
Quantity Measured: GI50

Which GI50 value belongs to Cc1ccc(NC(=O)c2nccc(C(F)(F)F)c2Cl)cc1Nc1ncccc1-c1ncnc2[nH]cnc12 ?
< 20 nM

Again, but for Cc1ccc(NC(=O)C[C@@H]2CCN[C@H](C(F)(F)F)C2)cc1Nc1ncccc1-c1ncnc2[nH]cnc12 (single isomer, unassigned)
100 to 500 nM

Again, but for Cc1ccc(NC(=O)c2cc(C(F)(F)F)ccn2)cc1Nc1nccc(C)c1-c1ncnc2[nH]cnc12
≥ 500 nM

###

# maps each entry to its GI50
target: BaF3 BRAF-KIAA1549 fusion cells (Homo sapiens, UniProt P15056); construct: The BRAF-KIAA1549 fusion mutant was subcloned into pMXs-IRES-Blasticidin (RTV-016, Cell Biolabs, San Diego, CA); fused on or other part: Q9HCM3 (UPF0606 protein KIAA1549); assay: BaF3 BRAF-KIAA1549 fusion cell proliferation assay (CellTiterGlo); format: cell-based; conditions: 96 hours incubation, potency code
Sequence (P15056 whole entry, change not shown, the tested form may be a part): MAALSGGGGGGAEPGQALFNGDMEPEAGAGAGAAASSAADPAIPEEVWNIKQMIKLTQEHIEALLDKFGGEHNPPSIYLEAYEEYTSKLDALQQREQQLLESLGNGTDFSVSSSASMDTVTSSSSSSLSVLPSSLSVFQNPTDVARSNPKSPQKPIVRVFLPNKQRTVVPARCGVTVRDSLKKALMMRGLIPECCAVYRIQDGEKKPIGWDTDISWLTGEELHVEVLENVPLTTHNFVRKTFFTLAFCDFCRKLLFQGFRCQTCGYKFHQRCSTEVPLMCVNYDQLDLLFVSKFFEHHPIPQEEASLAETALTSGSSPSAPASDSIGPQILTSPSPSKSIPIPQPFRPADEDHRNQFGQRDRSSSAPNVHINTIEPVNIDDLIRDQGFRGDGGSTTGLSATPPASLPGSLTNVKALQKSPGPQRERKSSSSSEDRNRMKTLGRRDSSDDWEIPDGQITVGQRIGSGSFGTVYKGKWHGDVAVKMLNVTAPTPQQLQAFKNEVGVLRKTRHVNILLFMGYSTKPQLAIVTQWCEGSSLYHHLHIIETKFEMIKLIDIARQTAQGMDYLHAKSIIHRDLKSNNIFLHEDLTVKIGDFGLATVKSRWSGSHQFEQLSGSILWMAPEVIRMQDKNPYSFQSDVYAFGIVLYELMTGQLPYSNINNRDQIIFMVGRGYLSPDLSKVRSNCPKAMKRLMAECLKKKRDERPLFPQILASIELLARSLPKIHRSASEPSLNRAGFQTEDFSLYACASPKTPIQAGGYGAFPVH

Worked cases, answers included:
* Cc1ccc(NC(=O)CC2CCCCCC2)cc1Nc1ncccc1-c1ncnc2[nH]cnc12 | < 20 nM
* Cc1c(F)cc(C(=O)Nc2cccc(C(F)(F)F)c2)cc1Nc1ncccc1-c1ncnc2[nH]cnc12 | 20 to 100 nM
* Cc1ccc(C(=O)Nc2cncc(C(F)(F)F)c2)cc1Nc1ncccc1-c1ncnc2[nH]cnc12 | < 20 nM
* Cc1ccc(NC(=O)c2cnc(C)c(C#N)c2)cc1Nc1ncccc1-c1ncnc2[nH]cnc12 | ≥ 500 nM
* Cc1ccc(NC(=O)CN2CCCC(C(F)(F)F)C2)cc1Nc1ncccc1-c1ncnc2[nH]cnc12 (stereo not drawn) | < 20 nM

Which GI50 value belongs to Cc1ccc(NC(=O)c2ccc(Cl)c(Cl)c2)cc1Nc1ncccc1-c1ncnc2[nH]cnc12 ?
< 20 nM

Again, but for Cc1cc(C)c(Nc2ncccc2-c2ncnc3[nH]cnc23)cc1NC(=O)c1cc(C(F)(F)F)ccn1
100 to 500 nM

Again, but for Cc1ncc(NC(=O)c2ccnc(C3(F)CC3)c2)cc1Nc1ncccc1-c1ncnc2[nH]cnc12
20 to 100 nM

###

# maps each entry to its GI50
target: BaF3 BRAF-KIAA1549 fusion cells (Homo sapiens); construct: The BRAF-KIAA1549 fusion mutant was subcloned into pMXs-IRES-Blasticidin (RTV-016, Cell Biolabs, San Diego, CA); fused on or other part: Q9HCM3 (UPF0606 protein KIAA1549); assay: BaF3 BRAF-KIAA1549 fusion cell proliferation assay (CellTiterGlo); type: cell-based; settings: 96 hours incubation, potency code

Worked cases, answers included:
* Cc1ccc(NC(=O)C[C@H]2CCN[C@@H](C(F)(F)F)C2)cc1Nc1ncccc1-c1ncnc2[nH]cnc12 (single isomer, unassigned) [IA-141] | 100 to 500 nM
* Cc1ccc(NC(=O)c2cc(C(F)(F)F)ccn2)cc1Nc1ncc(F)cc1-c1ncnc2[nH]cnc12 [IA-118] | 20 to 100 nM
* Cc1ccc(NC(=O)c2cc(C(F)(F)F)c(F)cn2)cc1Nc1ncccc1-c1ncnc2[nH]cnc12 [IA-115] | < 20 nM
* Cc1ccc(NC(=O)c2cc(C(F)(F)F)c(OCCO)cn2)cc1Nc1ncccc1-c1ncnc2[nH]cnc12 [IA-104] | < 20 nM

Turning to the following compound.
Item Cc1ccc(NC(=O)c2ccc3c(c2)OCO3)cc1Nc1ncccc1-c1ncnc2[nH]cnc12 [Compound I-74] with BaF3 BRAF-KIAA1549 fusion cells (Homo sapiens) - GI50?
20 to 100 nM
